Recorded values, source ChEMBL document CHEMBL3734661.

Assay: Volume of distribution in Beagle dog at 2.5 mg/kg, iv
Format: ADME, organism-based, Canis lupus familiaris
Conditions: in vivo
OBSERVATION TYPE: Vd (L/g)

MOLECULE SMILES	OBSERVATION TYPE	DISPLAY UNIT	MEASURED
CCC(CC)n1c(C)cc2c3c(N)nc(N)nc3ccc21	Vd	L/g	9.3

* * *

Experiment: Half life in Beagle dog at 2.5 mg/kg, iv
Format: ADME, organism-based, Canis lupus familiaris
Conditions: in vivo

MOLECULE SMILES	half-life [h]
CCC(CC)n1c(C)cc2c3c(N)nc(N)nc3ccc21	2.8

* * *

Target: Dihydrofolate reductase (Mus musculus)
Assay: Inhibition of DHFR in mouse L1210 cells using dihydrofolate as substrate preincubated for 5 mins followed by substrate addition by spectrofluorometric analysis
pIC50: −log10 of the molar value.

MOLECULE SMILES	pIC50
N#Cc1ccc(Cn2ccc3c4c(N)nc(N)nc4ccc32)cc1	8.40

* * *

Target: Dihydrofolate reductase (Rattus norvegicus)
Sequence (Q920D2 whole entry): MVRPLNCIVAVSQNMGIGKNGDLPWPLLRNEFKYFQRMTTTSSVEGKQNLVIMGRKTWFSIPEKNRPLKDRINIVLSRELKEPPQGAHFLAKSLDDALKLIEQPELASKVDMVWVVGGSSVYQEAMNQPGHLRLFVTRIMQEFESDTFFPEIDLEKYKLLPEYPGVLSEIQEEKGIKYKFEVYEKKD

MOLECULE SMILES	IC50
N#Cc1ccc(Cn2ccc3c4c(N)nc(N)nc4ccc32)cc1	2.1 nM

* * *

Test: Therapeutic index, ratio of MTD for Sprague-Dawley rat to MCD for Plasmodium berghei infected in Sprague-Dawley rat
Conditions: read-out: TI
OBSERVATION TYPE: selectivity ratio

MOLECULE SMILES	MEASURED
CC(=O)N(C(C)=O)c1nc(N(C(C)=O)C(C)=O)c2c(ccc3c2ccn3Cc2ccccc2C(F)(F)F)n1	80

* * *

Test system: Plasmodium falciparum
Assay: Antimalarial activity against Plasmodium falciparum D6 assessed as [3H]hypoxantine incorporation preincubated for 48 hrs followed by [3H]hypoxantine addition measured after 18 hrs by scintillation counting analysis
Assay type: functional, organism-based

MOLECULE SMILES	DISPLAY UNIT	IC50
CC(=O)N(C(C)=O)c1nc(N(C(C)=O)C(C)=O)c2c(ccc3c2ccn3Cc2ccccc2C(F)(F)F)n1	pM	46

* * *

Each entry below carries its reported pKi.
Target: Dihydrofolate reductase (Homo sapiens)
Sequence (P00374 whole entry): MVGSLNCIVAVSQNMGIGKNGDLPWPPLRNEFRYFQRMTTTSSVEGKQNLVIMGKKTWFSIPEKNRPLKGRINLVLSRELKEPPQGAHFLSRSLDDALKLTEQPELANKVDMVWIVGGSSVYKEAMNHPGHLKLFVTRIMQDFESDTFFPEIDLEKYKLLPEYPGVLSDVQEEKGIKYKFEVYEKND
Assay: Competitive inhibition of human recombinant DHFR preincubated for 2 mins followed by substrate addition in presence of dihydrofolate
pKi: −log10 of the molar value.
OBSERVATION TYPE: pKi

MOLECULE SMILES	MEASURED
Nc1nc(N)c2c(ccc3[nH]ccc32)n1	9.00
CCC(CC)n1c(C)cc2c3c(N)nc(N)nc3ccc21	12.52

* * *

System: L1210
Test: Cytotoxicity against mouse L1210 cells assessed as growth inhibition after 48 hrs by MTT assay
Format: functional, cell-based
Details: L1210, 48 h

MOLECULE SMILES	SYSTEM	IC50
N#Cc1ccc(Cn2ccc3c4c(N)nc(N)nc4ccc32)cc1	L1210	40 nM
